Parameter: GI50. Scope: all listed entries.
# Test system: SF-295
# assay.name: NCI tumour cell line growth inhibition, 48 h
Active and inactive are the calls of the source. Rule as the data show it: active = GI50 up to about 1.1 µM and inactive = higher.

Reference set (4 entries):
{"columns": ["molecule", "GI50"],
 "data": [
  ["O=C(/C=C/c1ccccc1)CC(=O)CCC(=O)Nc1ccc(Cl)cc1", "> 100 µM (inactive)"],
  ["Cn1c(=O)c2c(nc(NCCCCl)n2CC(=O)O)n(C)c1=O", "> 100 µM (inactive)"],
  ["COC(=O)C(=O)c1c2ccccc2n2ccc3c4ccccc4[nH]c3c12", "> 10 µM (inactive)"],
  ["Oc1c(C(Nc2cccc3cccnc23)c2ccccc2)ccc2cccnc12 (centres undefined)", "3.87 µM (inactive)"]
]}

Consider the additional molecule presented here.
Query block: Quick one: GI50 of O=C(O)C1(Cc2ccccc2)Cc2cc3c(cc2C1)CCC3 ?
Result block: > 100 µM (inactive)

====

# System: DMS-114
# assay.name: NCI tumour cell line growth inhibition, 48 h
Activity calls are given as the source filed them. No stated cut-off is given here; in the data, active = GI50 up to about 1.1 µM and inactive = higher.
experimental.endpoint: GI50

{"columns": ["compound", "result"],
 "data": [
  ["N#CC12C3C4CC5C6C4C1C6C(O)(C53)N2Cc1ccccc1 (stereo not drawn)", "> 100 µM (inactive)"],
  ["CN(CCc1ccccn1)c1nc(=[N+](C)C)ss1", "> 100 µM (inactive)"],
  ["COC(=O)C(Cc1nc2ccc(Cl)cc2nc1O)/C(=N\\N)C(=O)Nc1cc(C)c(Cl)cc1S(=O)(=O)O (stereo not drawn)", "73.5 µM (inactive)"],
  ["CCCC(=O)C(CC)/C(CCC(=O)N(Cc1ccccc1)Cc1ccccc1)=N/NC(=O)C[N+](C)(C)C (stereo not drawn)", "> 100 µM (inactive)"],
  ["COc1ccc(C[C@@H]2NC[C@@H](O)[C@@H]2OC(C)=O)cc1", "1.45 µM (inactive)"]
]}

Query block: Quick one: GI50 of COC(=O)c1nn(-c2ccccc2)c(=O)cc1N=[N+]=[N-] ?
Result block: > 100 µM (inactive)

Query block: Okay, and COC(=O)C1=C(C(=O)OC)C23CC1C1C(C(=O)OC)=C(C(=O)OC)C12C1C=CC3C2C(=O)OC(=O)C21 (stereo not drawn) ?
Result block: 26.6 µM (inactive)

Query block: Okay, and O=C1C=C(O)C(=Cc2c(O)cc(O)cc2O)C(O)=C1 ?
Result block: > 100 µM (inactive)

====

# System: EKVX
# assay.name: NCI tumour cell line growth inhibition, 48 h
Active and inactive are the calls of the source. Cut-off read from the data, not from the text of the source: active = GI50 up to about 1.1 µM and inactive = higher.
experimental.endpoint: GI50

{"columns": ["compound", "GI50"],
 "data": [
  ["COC(=O)CCC(=O)NC1=C(Nc2ccc(OC)cc2)C(=O)c2ccccc2C1=O", "17.7 µM (inactive)"],
  ["O=C1C/C(Br)=C\\c2ccccc2-c2ccccc21", "9.82 µM (inactive)"],
  ["CC(=O)O[C@H]1C(=O)[C@@]2(C)[C@H]([C@H](OC(=O)c3ccoc3)[C@]3(O)C[C@H](OC(=O)[C@H](O)[C@@H](NC(=O)c4ccccc4)c4ccccc4)C(C)=C1C3(C)C)[C@]1(OC(C)=O)CO[C@@H]1C[C@@H]2O", "> 9.59 µM (inactive)"],
  ["C[N+]1(CCNP(=S)(NCC[N+]2(C)Cc3c(ccc4c3OCO4)C3C2c2cc4c(cc2C[C@@H]3O)OCO4)NCC[N+]2(C)Cc3c(ccc4c3OCO4)C3C2c2cc4c(cc2C[C@@H]3O)OCO4)Cc2c(ccc3c2OCO3)C2C1c1cc3c(cc1C[C@H]2O)OCO3 (some centres undefined)", "< 0.00191 µM (active)"],
  ["O=[N+]([O-])/C(C(Cl)=C(Cl)Cl)=C1\\NCCS1", "> 100 µM (inactive)"],
  ["COc1cc2c(c(OC)c1OC)-c1ccc(SC)c(=O)cc1[C@@H](NCc1ccc(F)cc1)CC2", "0.0693 µM (active)"]
]}

Query block: Quick one: GI50 of O=C1c2ccccc2C(=O)c2c(NC(=O)c3ccc4c5c(ncnc35)-c3ccccc3C4=O)cccc21 ?
Result block: > 100 µM (inactive)

Query block: Okay, and Nc1ccc2n[se]nc2c1 ?
Result block: > 100 µM (inactive)

Query block: Okay, and C=CCN1C(=O)C(=O)N(CC=C)C(=O)C1=O ?
Result block: > 100 µM (inactive)

Query block: Okay, and C[N+]1(CCN=C=NC2CCCCC2)CCOCC1 ?
Result block: > 100 µM (inactive)

Query block: Okay, and CC(C)=CC(=O)CC(=O)C(=O)NCCNC(=O)C(=O)CC(=O)C=C(C)C ?
Result block: > 50 µM (inactive)

====

# System: SK-MEL-5
# assay.name: NCI tumour cell line growth inhibition, 48 h
Active and inactive are the calls of the source. Rule as the data show it: active = GI50 up to about 1.1 µM and inactive = higher.
Parameter call: string, one of active, inactive

Example cases with answers are listed next.
{"columns": ["compound", "label"],
 "data": [
  ["COC(=O)c1nn(-c2ccccc2)c(=O)cc1N=[N+]=[N-]", "inactive"],
  ["NC(CCCCO)C(=O)O (stereo unspecified)", "inactive"],
  ["CN1C(=O)N/C(=C\\c2ccc(S(=O)(=O)N/N=C\\C(O)C(O)C(O)CO)cc2)C1=O (stereo unspecified)", "inactive"]
]}

Query block: Hello, I am checking results. What call was entered for CC(C)Oc1ccc2c(c1)OCC1Cc3ccccc3OC21 (stereo unspecified) ?
Result block: inactive

Query block: Okay, and CCCCNC(=S)Nc1nc(C(=O)NNC(=S)NC2CCCCC2)cs1 ?
Result block: inactive

Query block: Okay, and C/C=C/C(O)P(=O)(OC)OC (stereo unspecified) ?
Result block: active

Query block: Okay, and CC1=NNC(=O)[C@H]2[C@H]1CCC1[C@@H]2CC[C@]2(C)[C@@H](O)CC[C@@H]12 (stereo partly specified) ?
Result block: inactive

====

# Test system: SK-MEL-5
# assay.name: NCI tumour cell line growth inhibition, 48 h
Activity calls are given as the source filed them. Cut-off read from the data, not from the text of the source: active = GI50 up to about 1.1 µM and inactive = higher.
Parameter call: string, one of True = active, False = inactive

Example cases with answers are listed next.
{"columns": ["compound", "label"],
 "data": [
  ["N#Cc1c(N)nc(Nc2cccc3ccccc23)c(C#N)c1C#N", "False"],
  ["NC(N)=NC(P(=O)(O)O)P(=O)(O)O", "False"],
  ["COC(=O)C1ON2C(C1C(=O)OC)C(C)(C)N(O)C2(C)C (configuration not stated)", "False"],
  ["COc1cc2c(c(OC)c1OC)-c1ccc(SC)c(=O)cc1[C@@H](NCc1ccc(F)cc1)CC2", "True"],
  ["Cc1nnc2sc(-c3ccc(-c4ccccc4Cl)o3)nn12", "False"]
]}

Query block: Hello, I am checking results. What call was entered for CCCn1c(SC)nc(COC(=O)NC)c1COC(=O)NC ?
Result block: False

Query block: Okay, and COCOc1cc(OC)c(Br)cc1C/C(=N/O)C(=O)OC ?
Result block: False

Query block: Okay, and CCOC(=O)N1c2ccccc2C(C)=CC(C)C1C (configuration not stated) ?
Result block: False

Query block: Okay, and COc1ccc(N2C(=O)C3c4[nH]c5ccc(OC)cc5c4C4CCC(C(C)(C)C)CC4C3C2=O)cc1 (configuration not stated) ?
Result block: False

Query block: Okay, and Cc1nc2cc(N)c(F)cc2[nH]1 ?
Result block: False

Query block: Okay, and COC(=O)C(Cc1nc2ccc(Cl)cc2nc1O)/C(=N\N)C(=O)Nc1cc(C)c(Cl)cc1S(=O)(=O)O (configuration not stated) ?
Result block: False

Query block: Okay, and COc1cc2oc(=O)cc(C)c2c(OC)c1O ?
Result block: False

====

# Tested on: HL-60
# assay.name: NCI tumour cell line growth inhibition, 48 h
Active and inactive are the calls of the source. Cut-off read from the data, not from the text of the source: active = GI50 up to about 1.1 µM and inactive = higher.
Parameter call: string, one of true (1) = active, false (0) = inactive

Example cases with answers are listed next.
{"columns": ["molecule", "system.name", "label"],
 "data": [
  ["COc1ccc2nc(-c3ccc(N)cc3)sc2c1", "HL-60", "false (0)"],
  ["CC(=O)C1=C(O)C2C3c4c[nH]c5cccc(c45)CC3C(C)(C)N2C1=O (stereo not given)", "HL-60", "false (0)"],
  ["COc1cc2[nH]c(=O)c3cc(C)cc4c(Cl)nc(c1OC)c2c43", "HL-60", "false (0)"],
  ["O=c1[nH]c(=O)n(C2CC(O)C(COP(=O)(O)OC3CC(n4cc(F)c(=O)[nH]c4=O)OC3COP(=O)(O)OC3CC(n4cc(F)c(=O)[nH]c4=O)OC3COP(=O)(O)OC3CC(n4cc(F)c(=O)[nH]c4=O)OC3COP(=O)(O)OC3CC(n4cc(F)c(=O)[nH]c4=O)OC3COP(=O)(O)OC3CC(n4cc(F)c(=O)[nH]c4=O)OC3COP(=O)(O)OC3CC(n4cc(F)c(=O)[nH]c4=O)OC3COP(=O)(O)OC3CC(n4cc(F)c(=O)[nH]c4=O)OC3COP(=O)(O)OC3CC(n4cc(F)c(=O)[nH]c4=O)OC3COP(=O)(O)OC3CC(n4cc(F)c(=O)[nH]c4=O)OC3CO)O2)cc1F (stereo not given)", "HL-60", "true (1)"],
  ["COc1ccc2c(c1)[nH]c1c3ccc(OC)cc3oc(=O)c21", "HL-60", "true (1)"],
  ["O=c1c2cc([N+](=O)[O-])ccc2n2n1Cc1ccccc1CC2", "HL-60", "false (0)"],
  ["Cc1nnc2sc(-c3ccc(-c4ccccc4Cl)o3)nn12", "HL-60", "false (0)"],
  ["COC(=O)c1cc2ccccc2c2nc3ccccc3c(Cl)c12", "HL-60", "false (0)"],
  ["O=C(/C=C/c1ccccc1)CC(=O)CCC(=O)Nc1ccc(Cl)cc1", "HL-60", "false (0)"],
  ["O=C1C=C(O)C(=Cc2c(O)cc(O)cc2O)C(O)=C1", "HL-60", "false (0)"]
]}

Query block: Hello, I am checking results. What call was entered for N#C/C(=C/NC(N)=S)C(N)=O ?
Result block: false (0)

Query block: Okay, and COc1ccc(/C=C2\CN(C)C/C(=C\c3ccc(OC)cc3)C2=O)cc1 ?
Result block: false (0)
